From: PubChem BioAssay (NCI)

test system: U251 CNS; experiment: NCI-60 one-dose screen, 48 h; conditions: 10 µM unless noted
The panel holds about 83,000 compounds, 20% with a hit somewhere; the sample as a whole holds those more often. The source made the active and inactive calls. Rule for the calls: active = growth percent below 10; inactive = the rest.
Possible outcomes: true for active, false for inactive

• CC1(C)[C@@H](O)CC[C@]2(C)[C@H]3CC[C@@H]4[C@H]5[C@H](C(=O)/C=C\c6ccncc6)CC[C@]5(O)CC[C@@]4(C)[C@]3(C)CC[C@@H]12 = false
• CC1=NC2=NN3C(=NN2C(c2ccccc2)=C1)N=NC(c1ccc(Br)cc1)=C3c1ccc(Br)cc1 = false
• COc1cc2oc(-c3cccc(NC(=O)c4cc(N)ccc4Cl)c3)cc(=O)c2c(OC)c1OC = false
• CN(C)CCN(C)c1ccc2ncc(C#Cc3cncc(C(=O)Nc4ccc(CN5CCN(C)CC5)c(C(F)(F)F)c4)c3)n2n1 = false
• O=C(Nc1nonc1-c1ccccc1)c1ccc(C(F)(F)F)cc1 = false
• CCNC(=O)N1CCc2cc(OC)c(OCCc3ccc(OC)c(N)c3)cc2C1c1cc(C)c(C)cc1C (stereo not given) = false
• CC[C@]12C=CCN3CC[C@@]4(c5cc(NC(=O)COc6cc(O)c7c(=O)cc(-c8ccccc8)oc7c6)c(OC)cc5N(C)[C@H]4[C@@](O)(C(=O)OC)[C@@H]1OC(C)=O)[C@@H]32 = true
• COc1ccc(OC)c(-c2nc(SCC(=O)c3ccc(Br)cc3)nc(Nc3ccc(S(N)(=O)=O)cc3)c2C#N)c1 = false
• CCOC(=O)C(=O)CC(=O)N1C(=S)NC(=O)C1CC(C)C (stereo not given) = false
• O=C(Nc1cccc(Cl)c1)Nc1nc2ccc([N+](=O)[O-])cc2o1 = true
• COc1ccc(Cn2cc3c(c2-c2cc(OC)c(OC)c(OC)c2)CCc2c(CN4CCCC4)noc2-3)cc1 = false
• Cc1ccc(C(=O)NN2C(=O)/C(=C/C=C/c3ccco3)SC2=S)cc1 = false
• N=c1c2cc(-c3ccccc3)oc2ncn1/N=C/c1ccc(Br)cc1 = false
• CN(C)CCCOc1ccc2c(c1)CN(C(=O)c1cc(C(=O)N3Cc4cccc(F)c4C3)ccc1O)C2 = false
• Cc1ccc(-n2c(/C=C3\C(=O)Nc4ccccc43)ccc2CO)cc1 = false
• CCN1CCN(C(=O)[C@]23CCC(C)(C)C[C@H]2C2=CC[C@@H]4[C@@]5(C)Cc6c([nH]c7ccccc67)C(C)(C)[C@@H]5CC[C@@]4(C)[C@]2(C)CC3)CC1 = false
• CCCSc1nc(Nc2ccc(/C(C)=N\NC(N)=S)cc2)c(C#N)c(-c2ccccc2)n1 = false
• O=C(CSc1nnc(-c2ccc3nc(-c4ccccc4)[nH]c3c2)o1)Nc1ccc(C(=O)/C=C/c2ccccc2)cc1 = false
• COc1ccc(Oc2ccc(/C=N/NC(=O)CSc3nc4ccccc4c(=O)n3-c3ccc(Cl)cc3)cc2)cc1 = false
• C=CCn1c(SCC(=O)Nc2ccc(C(=O)/C=C/c3ccc(Br)cc3)cc2)nnc1-c1c[nH]c2ccccc12 = false
• CC(=O)c1cc(C(=O)c2ccc(Br)cc2)n2cc(C)cc(C)c12 = false
• Oc1ccc(CSc2nnc(-c3ccc(Cl)cc3)n2-c2ccccc2)c2cccnc12 = true
• Cn1ccnc1C(=O)/C=C/c1ccc(CNC(=O)c2ccc(Cl)cc2)cc1 = true
• COc1ccc(N2CCN(C3=C(Cl)C(=O)C(C)=C(C)C3=O)CC2)cc1 = false
• CCOC(=O)c1c(N)c(C#N)cn1-c1cc(OC)c(OC)c(OC)c1 = false
• CC1=NC2=NC(=O)/C(=C3/N=C(C)C=C(c4ccccc4)N3N)NN2C(c2ccccc2)=C1 = false
• CC1(C)CC[C@]2(CN)CC[C@]3(C)C(=CC[C@@H]4[C@@]5(C)CCCNC(C)(C)[C@@H]5CC[C@]43C)[C@H]2C1 = false
• Cc1cc(-c2ccc(Cl)cc2)n(Cc2nnc(SCC(=O)Nc3ccc(S(N)(=O)=O)cc3)n2C2CCCCC2)n1 = false
• NS(=O)(=O)c1ccc(Nc2nc(Nc3ccccc3)nc3nnc(SCC(=O)NC4CCCCC4)n23)cc1 = false
• O=C(NNc1nc2cc(F)ccc2n2c(CN3CC4CNCC4C3)ccc12)c1cnccn1 (stereo not given) = false
• Cc1ccc(NC(=O)c2ccc(CN3CCN(C)CC3)cc2)cc1Oc1ccc(-c2[nH]nc3ncnc(N)c23)cc1 = false
• O=C1CC(=O)N2CSCN(C(c3ccccc3)c3nc4ncncc4[nH]3)C2=N1 (stereo not given) = false
• COc1ccc(/C=N/NC2=NC3C(S2)N(C)C(=O)N3C)cc1 (stereo not given) = false
• COC(=O)/C=C/c1c(C2(C)NC(=O)c3ccccc3N2)c(=O)oc2ccc(Cl)cc12 (stereo not given) = false
• CC(=O)c1cc(C(=O)N2c3ccccc3Sc3ccccc32)n2ccc3ccccc3c12 = false

---

Test system: NCI-H522 lung
Test: NCI-60 one-dose screen, 48 h (100 = growth as untreated, 0 = no growth, -100 = all killed)
Conditions: 10 µM unless noted
Experimental: Growth inhibition of the NCI-H522 human Non-Small Cell Lung tumor cell line is measured as a screen for anti-cancer activity. Cells are grown in 96 well plates and exposed to the test compound for 48 hours. Compounds are tested at a single concentration, which is 10^-5 M for most compounds. The reported endpoint is percent growth (GI% or GIPRCNT), where numbers from 0 - 100% represent growth inhibition, and numbers from -100% - 0 represent cell death. […]
Compounds without any hit were thinned out: in the full panel of roughly 83,000, 20% have a hit.
MEASURED PARAMETER: growth (%)

• COc1ccc2c(c1)c(CC(=O)[Se]CC(=O)O)c(C)n2C(=O)c1ccc(Cl)cc1 = 100
• NC(N)=Nc1ccc(Oc2cccc(NC(N)=Nc3ccc(I)cc3F)c2)cn1 = 41.2
• COc1cccc(O)c1/C=C(/C)c1ccc2c(OC)cccc2[o+]1 = 98.5
• Cc1ccc2c(c1)C13C(=C2Br)CCCN1C(=O)c1ccccc13 (stereo not drawn) = 80.8
• O=C(Cn1cc[n+](CC(=O)c2ccc(-c3ccccc3)cc2)c1)Nc1cccc2cccnc12 = 42.3
• COc1cc(Nc2c(C#N)cnn3cc(-c4cnn(CC(C)(C)O)c4)cc23)ccc1Cl = 15
• CCCCCCCn1cc2c(N[C@H](C)c3ccccc3)ncnc2n1 = 99.6
• NS(=O)(=O)c1ccc(-n2cc(CN3CCCCC3)nn2)cc1 = 95.8
• CC(C)c1ccc(NCc2cn(-c3ccc(C(=O)O)cc3)nc2-c2cc(C(F)(F)F)cc(C(F)(F)F)c2)cc1 = 85
• CCN1CCN(C(=O)[C@]23CCC(C)(C)C[C@H]2C2=CC[C@@H]4[C@@]5(C)Cc6c([nH]c7ccccc67)C(C)(C)[C@@H]5CC[C@@]4(C)[C@]2(C)CC3)CC1 = 90.5
• CCn1c(SCC(=O)Nc2cccc(C(=O)/C=C/c3ccccc3Cl)c2)nc2ccccc2c1=O = 85.3
• O=C(CN1CCN(c2cc(=O)n(-c3ccccc3)c3ccccc23)CC1)Nc1nc(-c2ccccc2)cs1 = 66.5
• O=C(CCn1c[n+](CC(=O)c2ccc(F)cc2)c2ccccc21)Nc1cccc2cccnc12 = 67.5
• COc1ccccc1NCc1cccn1Cc1ccc(F)cc1 = 79.5
• CN1CCN(Cc2ccc(NC(=O)c3cncc(C#Cc4cnc5ccc(OCC(C)(C)O)nn45)c3)cc2C(F)(F)F)CC1 = -35.3
• COc1c(N2CC3CCCNC3C2)c(F)cc2c(=O)c(C(=O)N/N=C/c3ccc(F)cc3)cn(C3CC3)c12 (stereo not drawn) = 94.1
• C=C(C=O)[C@@H]1CC[C@]2(COC(C)=O)CC[C@]3(C)C(CC[C@@H]4[C@@]5(C)CC[C@H](OC(C)=O)C(C)(C)[C@@H]5CC[C@]43C)[C@@H]12 (stereo partly drawn) = -35.5
• O=C(CCC(=O)N1CCOCC1)OCCCCCCSc1ccc([N+](=O)[O-])c2nonc12 = -61.2

---

Test system: SW-620 colon
Assay: NCI-60 one-dose screen, 48 h (100 = growth as untreated, 0 = no growth, -100 = all killed)
Conditions: 10 µM unless noted
Protocol: Growth inhibition of the SW-620 human tumor cell line is measured as a screen for anti-cancer activity. Cells are grown in 96 well plates and exposed to the test compound for 48 hours. Compounds are tested at a single concentration, which is 10^-5 M for most compounds. The reported endpoint is percent growth (GI% or GIPRCNT), where numbers from 0 - 100% represent growth inhibition, and numbers from -100% - 0 represent cell death. For example, a value of 40 represents 60% growth inhibition. […]
Compounds without any hit were thinned out: in the full panel of roughly 83,000, 20% have a hit.
MEASURED PARAMETER: growth (%)

• O=C1CCCc2nc(Nc3ccc(S(=O)(=O)Nc4ccc([N+](=O)[O-])cc4)cc3)ncc21 = 102
• COc1ccc(-c2nc3cc(Cl)c(Cl)cc3n2CC(=O)N=Nc2c(O)[nH]c3ccc(OC)cc23)cc1 = 61.4
• COc1cc2oc(-c3cccc(NC(=O)c4cc(N)ccc4Cl)c3)cc(=O)c2c(OC)c1OC = 110
• C[C@H]1c2[nH]c3ccccc3c2C[C@H]2C(=O)N(CCCCCCC(=O)NO)CC(=O)N21 = 80.5
• CC(=O)c1ccc(Nc2nc(SCC(C)C)nc(-c3ccccc3)c2C#N)cc1 = 117
• NC(N)=Nc1ccc(Oc2cccc(NC(N)=Nc3ccc(I)cc3F)c2)cc1 = 89.5
• CN1CCN(c2ccc(/C=N/Nc3nc4ccccc4c(=O)n3-c3ccccc3)cc2)CC1 = 99.6
• COc1ccc(-n2c(/C=C3\C(=O)Nc4ccccc43)ccc2CO)cc1 = 98.6
• CS(=O)(=O)Nc1cc(-c2ccc3ncc(C#N)c(NCc4ccccc4O)c3c2)cnc1Cl = 9.16
